System: B cells in human blood
assay_info: Inhibition of B cell activation in whole blood measured by CD69 expression
Format: cell-based
stated_conditions: CD69-positive, CD20-positive cells after anti-IgM stimulation, human whole blood, 20 hours, read-out: Human Whole Blood
Provide the reported pIC50 of each item.
Please report pIC50 as the negative decimal logarithm of the molar concentration, giving only the number.

Entry Cn1nc(-c2cccc(-n3ncc4cc(C(C)(C)C)cc(F)c4c3=O)c2CO)cc(Nc2ccc(C3CCN(S(C)(=O)=O)CC3)cn2)c1=O , pIC50 reported as 6.84

Entry CN1CCC[C@H]1c1ccc(Nc2cc(-c3cccc(-n4ncc5cc(C(C)(C)C)cc(F)c5c4=O)c3CO)nn(C)c2=O)nc1 , pIC50 reported as 8.52

Entry CN1C[C@@H]2C[C@H]1CN2c1cnc(Nc2cc(-c3cccc(-n4ncc5cc(C(C)(C)C)cc(F)c5c4=O)c3CO)nn(C)c2=O)cn1 , pIC50 reported as 6.69

Entry CN1CC2(C1)CN(C(=O)c1ccc(Nc3cc(-c4cccc(-n5ncc6cc(C(C)(C)C)cc(F)c6c5=O)c4CO)nn(C)c3=O)nc1)C2 , pIC50 reported as 7.07

Entry Cn1nc(-c2cccc(-n3ccc4cc(C(C)(C)CF)cc(F)c4c3=O)c2CO)cc(Nc2ccc(C(=O)N3CCOCC3)cn2)c1=O , pIC50 reported as 6.34

Entry CN1CCC[C@H]1c1ccc(Nc2cc(-c3cccc(-n4ccc5cc(C(C)(C)C#N)cc(F)c5c4=O)c3CO)nn(C)c2=O)nc1 , pIC50 reported as 7.29

Entry Cn1nc(-c2cccc(-n3ncc4cc(C(C)(C)C)cc(F)c4c3=O)c2CO)cc(Nc2ccc(N3CCC(C)(O)CC3)cn2)c1=O , pIC50 reported as 7.18

Entry Cn1nc(Nc2cc(-c3cccc(-n4ncc5cc(C(C)(C)C)cc(F)c5c4=O)c3CO)nn(C)c2=O)cc1CN1CCC1 , pIC50 reported as 8.70

Entry CC(C)S(=O)(=O)c1ccc(Nc2cc(-c3cccc(-n4ncc5cc(C(C)(C)C)cc(F)c5c4=O)c3CO)nn(C)c2=O)nc1 , pIC50 reported as 6.94

Entry Cn1nc(-c2cccc(-n3ncc4cc(C(C)(C)C)cc(F)c4c3=O)c2CO)cc(Nc2ccc(C3CCNCC3)cn2)c1=O , pIC50 reported as 7.13

Entry CN(C)CC(C)(C)Oc1ccc(Nc2cc(-c3cccc(-n4ncc5cc(C(C)(C)C)cc(F)c5c4=O)c3CO)nn(C)c2=O)nn1 , pIC50 reported as 7.68

Entry Cn1nc(-c2cccc(-n3ncc4cc(C(C)(C)C)cc(F)c4c3=O)c2CO)cc(Nc2cc3n(n2)CCN(C2COC2)C3)c1=O , pIC50 reported as 8.40

Entry Cn1nc(-c2cccc(-n3ncc4cc(C(C)(C)C)cc(F)c4c3=O)c2CO)cc(Nc2ccc(C(=O)N3CCS(=O)(=O)CC3)cn2)c1=O , pIC50 reported as 6.73

* * *

Test system: B cells in human blood
assay_info: Inhibition of B cell activation in whole blood measured by CD69 expression
Assay type: cell-based
stated_conditions: CD69-positive, CD20-positive cells after anti-IgM stimulation, human whole blood, 20 hours, read-out: Human Whole Blood
measured_endpoint: pIC50
Please report pIC50 as the negative decimal logarithm of the molar concentration, giving only the number.

Entry CN1CCn2nc(Nc3cc(-c4cccc(-n5ccc6cc(C(C)(C)C#N)cc(F)c6c5=O)c4CO)nn(C)c3=O)cc2C1 [I-74] , pIC50 reported as 7.47

Entry CN(C)CCNC(=O)c1ccc(Nc2cc(-c3cccc(-n4ncc5cc(C(C)(C)C)cc(F)c5c4=O)c3CO)nn(C)c2=O)nc1 [I-51] , pIC50 reported as 7.72

Entry CN1CCN(Cc2ccc(Nc3cc(-c4cccc(-n5ncc6cc(C(C)(C)C)cc(F)c6c5=O)c4CO)nn(C)c3=O)nc2)CC1 [I-41] , pIC50 reported as 7.82

Entry Cn1nc(-c2cccc(-n3ncc4cc(C(C)(C)C)cc(F)c4c3=O)c2CO)cc(Nc2ccc(CN3CCC(C)(O)CC3)cn2)c1=O [I-85] , pIC50 reported as 6.53

Entry COC[C@H](O)COc1ccc(Nc2cc(-c3cccc(-n4ncc5cc(C(C)(C)C)cc(F)c5c4=O)c3CO)nn(C)c2=O)nc1 [I-16] , pIC50 reported as 7.59

Entry CN1CCC(c2ccc(Nc3cc(-c4cccc(-n5ncc6cc(C(C)(C)C)cc(F)c6c5=O)c4CO)nn(C)c3=O)nn2)CC1 [I-40] , pIC50 reported as 7.36

Entry CN(C)Cc1ccc(Nc2cc(-c3cccc(-n4ncc5cc(C(C)(C)C)cc(F)c5c4=O)c3CO)nn(C)c2=O)nc1 [I-8] , pIC50 reported as 7.70
